test system: Escherichia coli TOP10; assay: shrunken log2 fold change of peptide-encoding DNA abundance (4.5 h post-induction vs induction); higher = less antimicrobial activity (less host growth inhibition); conditions: time post-induction: 4.5 h; library: site-saturation at positions 5, 18, 19, 20;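 note: peptides expressed intracellularly from a pBAD plasmid library in pooled LB shake-flask culture, induced with 0.3% L-arabinose, DNA abundance read by NGS, three biological replicates, DESeq2 with apeglm shrinkage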
readoutName: shrunken log2 fold change

[[record]]
sequencechain = "RRIRARPPRLPRPRPRPMFRPRP"
recordedmeasurement = -0.217

[[record]]
sequencechain = "RRIRFRPPRLPRPRPRPRLEPRP"
recordedmeasurement = 0.392

[[record]]
sequencechain = "RRIRMRPPRLPRPRPRPVWHPRP"
recordedmeasurement = 0.137

[[record]]
sequencechain = "RRIRQRPPRLPRPRPRPYFDPRP"
recordedmeasurement = -0.202

[[record]]
sequencechain = "RRIRLRPPRLPRPRPRPKPNPRP"
recordedmeasurement = 0.288

[[record]]
sequencechain = "RRIRSRPPRLPRPRPRPFFVPRP"
recordedmeasurement = -0.184

[[record]]
sequencechain = "RRIRCRPPRLPRPRPRPHPEPRP"
recordedmeasurement = -0.168

[[record]]
sequencechain = "RRIRPRPPRLPRPRPRPPGMPRP"
recordedmeasurement = 0.501

[[record]]
sequencechain = "RRIRTRPPRLPRPRPRPETFPRP"
recordedmeasurement = -0.4

[[record]]
sequencechain = "RRIRVRPPRLPRPRPRPGWMPRP"
recordedmeasurement = 0.159

[[record]]
sequencechain = "RRIRGRPPRLPRPRPRPTEEPRP"
recordedmeasurement = 0.525

[[record]]
sequencechain = "RRIRKRPPRLPRPRPRPAAGPRP"
recordedmeasurement = 0.896

[[record]]
sequencechain = "RRIRFRPPRLPRPRPRPEHCPRP"
recordedmeasurement = -0.0154

[[record]]
sequencechain = "RRIRTRPPRLPRPRPRPMLQPRP"
recordedmeasurement = 0.00738

[[record]]
sequencechain = "RRIRTRPPRLPRPRPRPWQAPRP"
recordedmeasurement = 0.177

[[record]]
sequencechain = "RRIRIRPPRLPRPRPRPARCPRP"
recordedmeasurement = 0.0563

[[record]]
sequencechain = "RRIRFRPPRLPRPRPRPNYHPRP"
recordedmeasurement = -0.758

[[record]]
sequencechain = "RRIRMRPPRLPRPRPRPDSNPRP"
recordedmeasurement = 0.754

[[record]]
sequencechain = "RRIRHRPPRLPRPRPRPLWSPRP"
recordedmeasurement = -0.31

[[record]]
sequencechain = "RRIRKRPPRLPRPRPRPGHDPRP"
recordedmeasurement = 0.141

[[record]]
sequencechain = "RRIRKRPPRLPRPRPRPAWAPRP"
recordedmeasurement = 0.577

[[record]]
sequencechain = "RRIRCRPPRLPRPRPRPEWQPRP"
recordedmeasurement = -0.0271

[[record]]
sequencechain = "RRIRQRPPRLPRPRPRPQHVPRP"
recordedmeasurement = 0.00911

[[record]]
sequencechain = "RRIRPRPPRLPRPRPRPHRRPRP"
recordedmeasurement = -0.0778

[[record]]
sequencechain = "RRIRQRPPRLPRPRPRPMMYPRP"
recordedmeasurement = 0.0473

[[record]]
sequencechain = "RRIRERPPRLPRPRPRPRPYPRP"
recordedmeasurement = -0.0326

[[record]]
sequencechain = "RRIRMRPPRLPRPRPRPCRRPRP"
recordedmeasurement = 0.0172

[[record]]
sequencechain = "RRIRSRPPRLPRPRPRPFLDPRP"
recordedmeasurement = -0.149

[[record]]
sequencechain = "RRIRGRPPRLPRPRPRPMFFPRP"
recordedmeasurement = 0.336

[[record]]
sequencechain = "RRIRDRPPRLPRPRPRPTKKPRP"
recordedmeasurement = -0.0587

[[record]]
sequencechain = "RRIRHRPPRLPRPRPRPFWLPRP"
recordedmeasurement = 0.137

[[record]]
sequencechain = "RRIRIRPPRLPRPRPRPHVFPRP"
recordedmeasurement = 0.064

[[record]]
sequencechain = "RRIRKRPPRLPRPRPRPNSNPRP"
recordedmeasurement = -0.115

[[record]]
sequencechain = "RRIRYRPPRLPRPRPRPQRAPRP"
recordedmeasurement = -0.374

[[record]]
sequencechain = "RRIRDRPPRLPRPRPRPEWIPRP"
recordedmeasurement = 0.0504


The reported numbers originate from the supplement of paper PMC9112550.
